test system: barnyardgrass (Echinochloa crus-galli, ECHCG); assay: Pre-emerge test, greenhouse herbicide activity screening; assay type: in vivo; settings: 250 g ai/ha; rated 14 days after application; 0 = no damage, 100 = complete death
Classification field: t = Pre-emerge Herbicidal Activity, phytotoxicity rating (0-100), ECHCG at or over 90; f = Pre-emerge Herbicidal Activity, phytotoxicity rating (0-100), ECHCG under 90.

Please review the following examples before continuing.
INSERT INTO assay_data (entry_smiles, assay_system, group) VALUES
  ('COc1c(Cl)cc(F)c(-n2c(=O)cc(C(F)(F)F)n(C)c2=O)c1N(C(=O)c1ccc(F)c(F)c1)C(=O)c1ccc(F)c(F)c1', 'barnyardgrass (Echinochloa crus-galli, ECHCG)', 'f'),
  ('COc1c(Cl)cc(F)c(-n2c(=O)cc(C(F)(F)F)n(C)c2=O)c1NC(=O)CCc1ccccc1', 'barnyardgrass (Echinochloa crus-galli, ECHCG)', 't'),
  ('Cc1c(Cl)cc(F)c(-n2c(=O)cc(C(F)(F)F)n(C)c2=O)c1NC(=O)c1ccc2ccccc2c1', 'barnyardgrass (Echinochloa crus-galli, ECHCG)', 'f'),
  ('COc1c(Cl)cc(F)c(-n2c(=O)cc(C(F)(F)F)n(C)c2=O)c1NC(=O)C=Cc1ccco1', 'barnyardgrass (Echinochloa crus-galli, ECHCG)', 'f'),
  ('COc1c(Cl)cc(F)c(-n2c(=O)cc(C(F)(F)F)n(C)c2=O)c1N(C(=O)c1ccc(C(F)(F)F)cc1)C(=O)c1ccc(C(F)(F)F)cc1', 'barnyardgrass (Echinochloa crus-galli, ECHCG)', 't'),
  ('COc1c(Cl)cc(F)c(-n2c(=O)cc(C(F)(F)F)n(C)c2=O)c1NC(=O)c1cccnc1', 'barnyardgrass (Echinochloa crus-galli, ECHCG)', 't'),
  ('COc1c(Cl)cc(F)c(-n2c(=O)cc(C(F)(F)F)n(C)c2=O)c1NC(=O)c1cccc2ccccc12', 'barnyardgrass (Echinochloa crus-galli, ECHCG)', 't'),
  ('COc1c(Cl)cc(F)c(-n2c(=O)cc(C(F)(F)F)n(C)c2=O)c1NC(=O)c1c(F)cccc1F', 'barnyardgrass (Echinochloa crus-galli, ECHCG)', 't'),
  ('COc1c(Cl)cc(F)c(-n2c(=O)cc(C(F)(F)F)n(C)c2=O)c1N(C(=O)C=Cc1ccccc1Cl)C(=O)C=Cc1ccccc1Cl', 'barnyardgrass (Echinochloa crus-galli, ECHCG)', 'f'),
  ('COc1c(Cl)cc(F)c(-n2c(=O)cc(C(F)(F)F)n(C)c2=O)c1NC(=O)c1cc([N+](=O)[O-])cc([N+](=O)[O-])c1', 'barnyardgrass (Echinochloa crus-galli, ECHCG)', 'f');

Qu. For this compound, is measured Pre-emerge Herbicidal Activity, phytotoxicity rating (0-100), ECHCG 90 or higher? `COc1c(Cl)cc(F)c(-n2c(=O)cc(C(F)(F)F)n(C)c2=O)c1NC(=O)C=Cc1ccccc1Cl`
Ans. f

Qu. Next up: `COc1c(Cl)cc(F)c(-n2c(=O)cc(C(F)(F)F)n(C)c2=O)c1NC(=O)c1cc(F)cc(F)c1`
Ans. t

====

system: redroot pigweed (Amaranthus retroflexus, AMARE); assay: Post-emerge test, greenhouse herbicide activity screening; format: in vivo; settings: post-emerge, 63 g ai/ha, phytotoxicity rating 0-100 at 14 days after application
As shown below, each of these compounds has a reported Post-emerge Herbicidal Activity AMARE value.
Please reply with the number alone, leaving off any unit.

INSERT INTO results (compound, readout_label, reported_value) VALUES
  ('O=C(Nc1cc(Cl)ccc1N1C(=O)C2=C(CCCC2)C1=O)c1ccc2ccccc2c1', 'Post-emerge Herbicidal Activity AMARE', 95);

Qu. Tell me reported Post-emerge Herbicidal Activity AMARE for `Cc1cccc(COC(=O)Nc2c(C)c(Cl)cc(F)c2-n2c(=O)cc(C(F)(F)F)n(C)c2=O)c1` , tested with redroot pigweed (Amaranthus retroflexus, AMARE).
Ans. 100

Qu. Next up: `CC(C)Oc1c(Cl)cc(F)c(N2C(=O)C3=C(CCCC3)C2=O)c1NC(=O)c1ccc(F)cc1F`
Ans. 100

Qu. Next up: `COc1ccccc1COC(=O)Nc1c(C)c(Cl)cc(F)c1-n1c(=O)cc(C(F)(F)F)n(C)c1=O`
Ans. 100

Qu. Next up: `COc1c(Cl)cc(F)c(-n2nc(C)n(C(F)F)c2=O)c1NC(=O)c1ccc(F)cc1F`
Ans. 80

Qu. Next up: `O=C(Nc1cc(Cl)ccc1-n1c(=O)n2n(c1=S)CCCC2)c1ccc2ccccc2c1`
Ans. 85

Qu. Next up: COc1c(Cl)cc(F)c(N2C(=O)C3CCCCN3C2=S)c1NC(=O)c1ccc2ccccc2c1 (stereo not shown)
Ans. 70

Qu. Next up: O=C(Nc1cc(Cl)ccc1N1C(=O)C2CCCCN2C1=O)c1ccc2ccccc2c1 (stereo not shown)
Ans. 80

Qu. Next up: `Cc1ccc(COC(=O)Nc2c(C)c(Cl)cc(F)c2-n2c(=O)cc(C(F)(F)F)n(C)c2=O)cc1`
Ans. 100

Qu. Next up: `Cc1cc(C)c(COC(=O)Nc2c(C)c(Cl)cc(F)c2-n2c(=O)cc(C(F)(F)F)n(C)c2=O)c(C)c1`
Ans. 100

Qu. Next up: `Cc1c(Cl)cc(F)c(-n2c(=O)cc(C(F)(F)F)n(C)c2=O)c1NC(=O)OCc1ccc(Cl)cc1`
Ans. 100

Qu. Next up: `COc1c(Cl)cc(F)c(N2C(=O)C3=C(CCCC3)C2=O)c1NC(=O)C=Cc1ccccc1`
Ans. 100

Qu. Next up: `C=Cc1ccc(C(=O)Nc2c(OC)c(Cl)cc(F)c2N2C(=O)C3=C(CCCC3)C2=O)cc1`
Ans. 100

Qu. Next up: `Cc1c(Cl)cc(F)c(-n2c(=O)cc(C(F)(F)F)n(C)c2=O)c1NC(=O)SCc1ccccc1`
Ans. 80

Qu. Next up: `C#CCOc1c(Cl)cc(F)c(N2C(=O)C3=C(CCCC3)C2=O)c1NC(=O)c1ccc(F)cc1F`
Ans. 100

Qu. Next up: Nc1c(O)c(Cl)cc(F)c1N1C(=O)C2CCCCN2C1=S (single isomer, unassigned)
Ans. 30

Values from patent US6355799B1
